These entries and their values trace back to paper PMC10786891.

- system-name: T1, EsCas13d, nuclease-dead (Eubacterium siraeum, UniProt B0MS50, R295A;H300A;R849A;H854A)
- T1 sequence: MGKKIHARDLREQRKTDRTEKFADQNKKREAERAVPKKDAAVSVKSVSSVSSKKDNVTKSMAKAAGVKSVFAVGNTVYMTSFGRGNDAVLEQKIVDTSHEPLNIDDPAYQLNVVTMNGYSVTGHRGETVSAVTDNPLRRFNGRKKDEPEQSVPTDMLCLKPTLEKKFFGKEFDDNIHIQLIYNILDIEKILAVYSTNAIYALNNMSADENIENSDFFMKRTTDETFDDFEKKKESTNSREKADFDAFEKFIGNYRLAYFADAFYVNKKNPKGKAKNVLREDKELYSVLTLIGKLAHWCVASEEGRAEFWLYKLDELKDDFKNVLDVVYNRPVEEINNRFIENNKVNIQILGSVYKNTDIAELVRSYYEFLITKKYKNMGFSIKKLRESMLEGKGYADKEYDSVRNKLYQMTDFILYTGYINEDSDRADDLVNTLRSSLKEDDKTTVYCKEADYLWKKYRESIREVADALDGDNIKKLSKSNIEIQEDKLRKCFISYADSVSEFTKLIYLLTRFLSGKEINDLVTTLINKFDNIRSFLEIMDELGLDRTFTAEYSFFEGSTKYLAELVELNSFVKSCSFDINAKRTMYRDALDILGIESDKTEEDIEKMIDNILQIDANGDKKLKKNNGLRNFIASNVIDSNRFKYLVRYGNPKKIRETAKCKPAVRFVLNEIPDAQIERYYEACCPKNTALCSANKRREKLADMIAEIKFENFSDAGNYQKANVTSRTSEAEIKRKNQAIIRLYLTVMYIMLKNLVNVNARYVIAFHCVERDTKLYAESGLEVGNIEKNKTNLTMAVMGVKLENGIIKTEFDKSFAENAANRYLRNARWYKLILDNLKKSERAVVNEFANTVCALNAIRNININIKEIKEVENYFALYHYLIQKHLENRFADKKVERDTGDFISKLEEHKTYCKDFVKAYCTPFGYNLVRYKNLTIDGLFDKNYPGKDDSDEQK
- experiment-description: crRNA (strand 1, pre-loaded); Mg2+; 40 mM Tris-HCl pH 7.5, 150 mM NaCl, 6 mM MgCl2, 1 mM DTT, 0.1% Tween-20, 0.2 mg/ml BSA; 25 C; 10 min per concentration, then washed
- condition-info: tags: His6-TwinStrep-SUMO cleaved; N-terminal SNAP kept (SNAP-Surface 488); label: 3' end held by stalled T7 RNA polymerase
pKd values, listed per item
Scale for pKd: -log10 of concentration given in mol/L; no unit attached.

Below are worked cases with known answers.
binder: target 1 A20U,C22A (mixed) RNA 1: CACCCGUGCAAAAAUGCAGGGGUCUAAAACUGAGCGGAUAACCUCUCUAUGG RNA 2: GGGAAUGGAUCCACAUCUACGAAUUCGUAACUUAGAGAGGUUAUCCGCUCACCGAGAUCGGAAGAGCACACGU
pKd: 7.62
--
binder: target 1 MT 5'PFS GUG 3'PFS GUA (mixed) RNA 1: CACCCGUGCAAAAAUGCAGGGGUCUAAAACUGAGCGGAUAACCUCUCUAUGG RNA 2: GGGAAUGGAUCCACAUCUACGAAUUCGUGCCAUAGAGAGGUUAUCCGCUCAGUAAGAUCGGAAGAGCACACGU
pKd: 7.91
--
binder: target 1 insG 3' of 9,insC 3' of 5 (mixed) RNA 1: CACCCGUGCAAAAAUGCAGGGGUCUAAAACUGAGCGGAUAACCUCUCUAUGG RNA 2: GGGAAUGGAUCCACAUCUACGAAUUCGUACCAUAGAGAGGUUAGUCCGCCUCACCGAGAUCGGAAGAGCACACGU
pKd: 7.95
--
binder: target 3 C6U,U8G (mixed) RNA 1: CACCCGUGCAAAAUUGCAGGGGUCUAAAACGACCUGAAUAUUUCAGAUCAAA RNA 2: GGGAAUGGAUCCACAUCUACGAAUUCGUUUUUGAUCUGAAAUAGUUAGGUCUGCAGAUCGGAAGAGCACACGU
pKd: 7.36
--
binder: target 1 C2G,U8C (mixed) RNA 1: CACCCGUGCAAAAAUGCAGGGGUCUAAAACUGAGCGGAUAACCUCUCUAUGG RNA 2: GGGAAUGGAUCCACAUCUACGAAUUCGUACCAUAGAGAGGUUACCCGCUGACCGAGAUCGGAAGAGCACACGU
pKd: 8.10
--
binder: target 1 U10C,C22U (mixed) RNA 1: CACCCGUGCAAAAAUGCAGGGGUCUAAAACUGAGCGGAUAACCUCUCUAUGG RNA 2: GGGAAUGGAUCCACAUCUACGAAUUCGUAUCAUAGAGAGGUCAUCCGCUCACCGAGAUCGGAAGAGCACACGU
pKd: 7.25
--
binder: target 1 MT 5'PFS GCG 3'PFS UGU (mixed) RNA 1: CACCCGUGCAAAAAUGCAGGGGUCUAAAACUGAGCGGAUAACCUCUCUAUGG RNA 2: GGGAAUGGAUCCACAUCUACGAAUUCGCGCCAUAGAGAGGUUAUCCGCUCAUGUAGAUCGGAAGAGCACACGU
pKd: 7.38

Moving on to another binder below.
# input binder: target 2 MT 5'PFS AAG 3'PFS ACU (mixed) RNA 1: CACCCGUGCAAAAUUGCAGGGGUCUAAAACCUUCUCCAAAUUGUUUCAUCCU RNA 2: GGGAAUGGAUCCACAUCUACGAAUUCAAGAGGAUGAAACAAUUUGGAGAAGACUAGAUCGGAAGAGCACACGU ; wanted: its pKd
8.05
